Assay: Cellular viability qHTS for adrenocortical cancer (ACC) cell line NCI-H295R (AID 1963990); further: nearly all actives have a fitted effect of over 60% in size
Settings: CellTiter-Glo ATP luminescence, 48 h; series mostly up to 46.1 µM
Source text: PI: Naris Nilubol, MD Surgical Oncology Program, National Cancer Institute (NCI) National Institute of Health (NIH), Bethesda, Maryland Adrenocortical cancer (ACC) is a rare malignancy with poor survival outcomes and few treatment options. Currently, mitotane is the only FDA-approved therapy for ACC. […] Through a quantitative high-throughput drug screen (qHTS), we identified auranofin (AF), a thioredoxin reductase (TXNRD) inhibitor, as a promising candidate drug. […]
Inconclusive results are not listed. Calls of active or inactive are those of the source. The call rests on the fitted dose curve; in most records, active means well fitted cell-killing curve with a large enough effect; inconclusive means small, poorly fitted or top-dose-only effect; inactive means flat fitted curve, though single readings scatter.
Please reply with one of these outcomes: active, inactive

Look over these answered cases.
### Prompt Please share the test call associated with `C#C[C@]1(O)CC[C@H]2[C@@H]3CCc4cc(O)ccc4[C@H]3CC[C@@]21C` .
### Response active

### Prompt Please share the test call associated with `CS(=O)(=O)c1ccc(-c2nnc(/C=C/c3nnc(-c4ccc(C#N)cc4)o3)n2-c2ccccc2Cl)nc1` .
### Response inactive

### Prompt Please share the test call associated with `CCC(=O)N[C@H]1CC[C@H](C(=O)N(C)c2ccc(-c3nc4ccccc4o3)cc2)C1` .
### Response inactive

### Prompt Please share the test call associated with `Nc1nc2c(c(=O)[nH]1)N(C=O)[C@H](CNc1ccc(C(=O)N[C@@H](CCC(=O)O)C(=O)O)cc1)CN2` .
### Response inactive

### Prompt Please share the test call associated with `Cc1[nH]c(/C=C2\C(=O)Nc3ccc(F)cc32)c(C)c1C(=O)NCCN1CCCC1` .
### Response active

### Prompt Please share the test call associated with C=C(C)C(=O)OCC(O)CO (centres undefined) .
### Response inactive

Others:
### Prompt Please share the test call associated with `Cc1cc(N2CCOCC2)ccc1Nc1nc(NC2CCCCC2)c2[nH]cnc2n1` .
### Response active

### Prompt Please share the test call associated with `CS(=O)(=O)N1CCN(Cc2cc3nc(-c4cccc5[nH]ncc45)nc(N4CCOCC4)c3s2)CC1` .
### Response active

### Prompt Please share the test call associated with `COc1ccc(CCN(C)CCCN2CCc3cc(OC)c(OC)cc3CC2=O)cc1OC` .
### Response inactive

* * *

assay: Cellular viability qHTS for adrenocortical cancer (ACC) cell line SW-13 (AID 1963989); conditions: SW-13 ACC cells viability, CellTiter-Glo, 48 h; hits give low values;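 further: cells grown in serum-free medium with ITS supplement; on the % scale 0 is the no-effect control and ±100 the full control effect; nearly all actives have a fitted effect of over 65% in size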
Records with an inconclusive call do not appear.
observation.type: activity (max response) (%)
Response body: numeric value in %, unit text excluded.

### Prompt For the compound `NC(=O)c1cc(F)cc2c1C(=O)N(C1CCN(C3CCC(F)(F)CC3)CC1)C2` , report activity (max response).
### Response -0.81

### Prompt For the compound `O=C(/C=C/c1ccc(Cl)cc1)N1CCC2(CC1)CN(Cc1ccc(Cl)c(Cl)c1)C(=O)O2` , report activity (max response).
### Response -3.3

### Prompt For the compound `CC(C)NC(=O)N1CC[C@H](N=C2Nc3cc(F)ccc3N(CC(F)F)c3ccc(Cl)cc32)C1` , report activity (max response).
### Response -16

### Prompt For the compound `Oc1cc(O)cc(/C=C/c2ccc(O)c(O)c2)c1` , report activity (max response).
### Response -23.2

### Prompt For the compound `COc1ccc(C2C(=O)c3ccccc3C2=O)cc1` , report activity (max response).
### Response 8.16

Others:
### Prompt For the compound `CC(=O)NS(=O)(=O)c1ccc(N)cc1` , report activity (max response).
### Response 4.13

### Prompt For the compound `COc1ccc(Cl)cc1C(=O)NCCc1ccc(S(=O)(=O)NC(=O)NC2CCCCC2)cc1` , report activity (max response).
### Response -4.38

* * *

assay: Quantitative highthroughput screen to assess conditional lethalithy of NOMO1 cells grown in Human Plasma-Like Medium with dialyzed fetal bovine serum (HPLM+ds) (AID 1963878); settings: NOMO1 AML cells in HPLM+ds, CellTiter-Glo viability, 48 h; series mostly up to 45.8 µM; further: nearly all actives have a fitted effect of over 35% in size;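 on viability: 100% = DMSO wells and 0% = empty wells on each plate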
Records with an inconclusive call do not appear. The source made the active and inactive calls. Calls follow the shape of the dose curve; as a rule, active = well fitted cell-killing curve with a large enough effect; inconclusive = small, poorly fitted or top-dose-only effect, or effect the other way; inactive = no such curve, though single readings can be large or run the other way.
Please reply with one of these outcomes: active, inactive

Look over these answered cases.
### Prompt Please share the test call associated with `Clc1ccccc1C(c1ccccc1)(c1ccccc1)n1ccnc1` .
### Response inactive

### Prompt Please share the test call associated with `C=C(c1ccc(C(=O)O)cc1)c1cc2c(cc1C)C(C)(C)CCC2(C)C` .
### Response active

### Prompt Please share the test call associated with `O=c1cc(CN2CCOCC2)occ1OCCCCCSc1ccnc2cc(C(F)(F)F)ccc12` .
### Response inactive

Others:
### Prompt Please share the test call associated with `COCCOc1nc(-c2ccc(Cl)c(Cl)c2)n(-c2ccc(NC(=O)CCl)cc2)n1` .
### Response inactive

### Prompt Please share the test call associated with `N#CC[C@H](C1CCCC1)n1cc(-c2ncnc3[nH]ccc23)cn1` .
### Response active

### Prompt Please share the test call associated with `COc1ccc(S(=O)(=O)Nc2cc(-c3c(O)ccc4ccccc34)c(O)c3ccccc23)cc1` .
### Response active

### Prompt Please share the test call associated with `COc1c(Cl)cc2c([nH]c3cnccc32)c1NC(=O)c1cccnc1C` .
### Response inactive

### Prompt Please share the test call associated with CC1(C)CC(=O)c2c(C(F)(F)F)nn(-c3ccc(C(N)=O)c(NC4CCC(OC(=O)CN)CC4)c3)c2C1 (stereo unspecified) .
### Response active

### Prompt Please share the test call associated with `O=C(NNC(=O)c1ccc(CNS(=O)(=O)c2ccc(F)c(Cl)c2)cc1)c1ccccc1` .
### Response inactive

* * *

assay: Viability qHTS for spleen associated tyrosine kinase inhibitor (SYKi) drug resistant MV4-11 cells (AID 1963824); conditions: SYKi-resistant MV4-11 viability, CellTiter-Glo, 72 h; series mostly up to 45 µM; further: nearly all actives have a fitted effect of over 35% in size
Results filed as inconclusive are left out. Activity calls are given as the source filed them. Calls follow the shape of the dose curve; as a rule, active = well fitted cell-killing curve with a large enough effect; inconclusive = small, poorly fitted or top-dose-only effect, or effect the other way; inactive = no such curve, though single readings can be large or run the other way.
Please reply with one of these outcomes: active, inactive

Look over these answered cases.
### Prompt Please share the test call associated with CC(CNS(=O)(=O)C(C)C)c1ccc(-c2ccc(C#N)cc2)cc1 (stereo unspecified) .
### Response active

### Prompt Please share the test call associated with `CN(C)S(=O)(=O)c1ccc2c(c1)/C(=C/c1cc3c([nH]1)CCCC3)C(=O)N2` .
### Response active

### Prompt Please share the test call associated with `COc1ccc(C[C@H](N)C(=O)N[C@H]2[C@@H](O)[C@H](n3cnc4c(N(C)C)ncnc43)O[C@@H]2CO)cc1` .
### Response active

### Prompt Please share the test call associated with CN(C)C/C=C/C(=O)Nc1cc2c(Nc3ccc(F)c(Cl)c3)ncnc2cc1OC1CCOC1 (stereo unspecified) .
### Response active

Others:
### Prompt Please share the test call associated with `CO[C@H]1O[C@@H]2O[C@]3(C)CC[C@H]4[C@H](C)CC[C@@H]([C@H]1C)[C@@]24OO3` .
### Response active

### Prompt Please share the test call associated with `CC(C)=CCC[C@](C)(O[C@@H]1O[C@H](CO[C@@H]2O[C@H](CO)[C@@H](O)[C@H](O)[C@H]2O)[C@@H](O)[C@H](O)[C@H]1O)[C@H]1CC[C@]2(C)[C@@H]1[C@H](O)C[C@@H]1[C@@]3(C)CC[C@H](O[C@@H]4O[C@H](CO)[C@@H](O)[C@H](O)[C@H]4O[C@@H]4O[C@H](CO)[C@@H](O)[C@H](O)[C@H]4O)C(C)(C)[C@@H]3CC[C@]12C` .
### Response inactive

### Prompt Please share the test call associated with `O=C(NC1CCNCC1)c1[nH]ncc1NC(=O)c1c(Cl)cccc1Cl` .
### Response active

### Prompt Please share the test call associated with `C[C@@H]1O[C@@H](O[C@H]2[C@@H]3C=CO[C@@H](O[C@@H]4O[C@H](CO)[C@@H](O)[C@H](O)[C@H]4O)[C@@H]3[C@@]3(CO)O[C@@H]23)[C@H](O)[C@H](OC(=O)/C=C/c2ccc(O)cc2)[C@H]1OC(=O)/C=C/c1ccc(O)cc1` .
### Response inactive

### Prompt Please share the test call associated with `COC(=O)/C=C(/C)N` .
### Response inactive

### Prompt Please share the test call associated with CC1=CC2=C(C)C(=O)C(C)(O)C(O)C2CO1 (stereo unspecified) .
### Response inactive

* * *

assay: Quantitative highthroughput screen to assess conditional lethalithy of P12 Ichikawa cells grown in Human Plasma-Like Medium with dialyzed fetal bovine serum (HPLM+ds) (AID 1963879); details: ATP luminescence, 48 h; viability; series mostly up to 45.8 µM; further: nearly all actives have a fitted effect of over 35% in size
Records with an inconclusive call do not appear. Activity calls are given as the source filed them. Calls come from the whole dose curve; as a rule, active = well fitted cell-killing curve with a large enough effect; inconclusive = small, poorly fitted or top-dose-only effect; inactive = flat fitted curve, though single readings scatter.
Please reply with one of these outcomes: Yes for active, No for inactive

### Prompt Please share the test call associated with `CCC(=O)OCC(=O)[C@@]1(OC(=O)CC)[C@@H](C)C[C@@H]2[C@H]3CCC4=CC(=O)C=C[C@]4(C)[C@@]3(F)[C@@H](O)C[C@@]21C` .
### Response Yes

### Prompt Please share the test call associated with `Cc1ccc(-n2nc(C(C)(C)C)cc2NC(=O)Nc2ccc(OCCN3CCOCC3)c3ccccc23)cc1` .
### Response No

### Prompt Please share the test call associated with `Oc1ccc([C@@H]2Oc3ccc(O)cc3[C@@H]3CCC[C@@H]32)cc1` .
### Response Yes

### Prompt Please share the test call associated with `OC[C@H]1O[C@@H](OCCc2ccc(O)cc2)[C@H](O)[C@@H](O)[C@H]1O` .
### Response No

Others:
### Prompt Please share the test call associated with `NC(=O)c1cccc(N)c1` .
### Response No

### Prompt Please share the test call associated with `NCCCCCC(=O)O` .
### Response No

### Prompt Please share the test call associated with Cc1cc(C(C)Nc2ccccc2)c2nc(N3CCOCC3)cc(=O)n2c1 (stereo not given) .
### Response No

### Prompt Please share the test call associated with `CN(C)CCN(Cc1ccc(Cl)cc1)c1ccccn1` .
### Response No

### Prompt Please share the test call associated with `O=c1n(CCCN2CCN(c3cccc(Cl)c3)CC2)nc2ccccn12` .
### Response No

### Prompt Please share the test call associated with COc1ccc(CC2SC(=O)NC2=O)cc1C(=O)NCc1ccc(C(F)(F)F)cc1 (stereo not given) .
### Response No

### Prompt Please share the test call associated with N[C@H]1CN(c2c(F)cc3c(=O)c(C(=O)O)cn(C4C[C@@H]4F)c3c2Cl)CC12CC2 (stereo not given in full) .
### Response No

### Prompt Please share the test call associated with `COc1ccc(CCN(C)CCCOc2ccc(S(=O)(=O)c3[nH]c4ccccc4c3C(C)C)cc2)cc1OC` .
### Response No

### Prompt Please share the test call associated with C[C@@H]1COCCN1c1cc(C2(S(C)(=N)=O)CC2)nc(-c2ccnc3[nH]ccc23)n1 (stereo not given in full) .
### Response Yes

### Prompt Please share the test call associated with `CNC(=O)c1cccc(-c2ccc3c(N4CCOC[C@H]4C)nc(N4CCOC[C@H]4C)nc3n2)c1` .
### Response Yes

### Prompt Please share the test call associated with `CN(C)c1ccc2nc3ccc(=[N+](C)C)cc-3sc2c1` .
### Response Yes

### Prompt Please share the test call associated with `C[C@H](NC(=O)Cc1cc(F)cc(F)c1)C(=O)N[C@H](C(=O)OC(C)(C)C)c1ccccc1` .
### Response No

### Prompt Please share the test call associated with CCOc1cc(N)c(Cl)cc1C(=O)NCC1CN(Cc2ccc(F)cc2)CCO1 (stereo not given) .
### Response No

### Prompt Please share the test call associated with O=C1Nc2ccc(Cl)cc2C(C#CC2CC2)(C(F)(F)F)O1 (stereo not given) .
### Response No

### Prompt Please share the test call associated with `O=C(NOC[C@H](O)CO)c1ccc(F)c(F)c1Nc1ccc(I)cc1F` .
### Response Yes

### Prompt Please share the test call associated with `COc1cc2ncn(-c3cc(OCc4ccccc4S(C)(=O)=O)c(C#N)s3)c2cc1OC` .
### Response No

Values from PubChem BioAssay (NCATS)
